molecular target: RdRp of the influenza virus (replicon activity) (Influenza A virus, UniProt P03431); assay: Influenza virus RdRp replicon reporter (Luc) assay in transduced 293T cells; assay type: cell-based, Influenza A/PR/8/34 (H1N1); conditions: Methotrexate concentration 2.5 μM; read-out: T-705 50% inhibitory concentration
Sequence (P03431 whole entry, looked up): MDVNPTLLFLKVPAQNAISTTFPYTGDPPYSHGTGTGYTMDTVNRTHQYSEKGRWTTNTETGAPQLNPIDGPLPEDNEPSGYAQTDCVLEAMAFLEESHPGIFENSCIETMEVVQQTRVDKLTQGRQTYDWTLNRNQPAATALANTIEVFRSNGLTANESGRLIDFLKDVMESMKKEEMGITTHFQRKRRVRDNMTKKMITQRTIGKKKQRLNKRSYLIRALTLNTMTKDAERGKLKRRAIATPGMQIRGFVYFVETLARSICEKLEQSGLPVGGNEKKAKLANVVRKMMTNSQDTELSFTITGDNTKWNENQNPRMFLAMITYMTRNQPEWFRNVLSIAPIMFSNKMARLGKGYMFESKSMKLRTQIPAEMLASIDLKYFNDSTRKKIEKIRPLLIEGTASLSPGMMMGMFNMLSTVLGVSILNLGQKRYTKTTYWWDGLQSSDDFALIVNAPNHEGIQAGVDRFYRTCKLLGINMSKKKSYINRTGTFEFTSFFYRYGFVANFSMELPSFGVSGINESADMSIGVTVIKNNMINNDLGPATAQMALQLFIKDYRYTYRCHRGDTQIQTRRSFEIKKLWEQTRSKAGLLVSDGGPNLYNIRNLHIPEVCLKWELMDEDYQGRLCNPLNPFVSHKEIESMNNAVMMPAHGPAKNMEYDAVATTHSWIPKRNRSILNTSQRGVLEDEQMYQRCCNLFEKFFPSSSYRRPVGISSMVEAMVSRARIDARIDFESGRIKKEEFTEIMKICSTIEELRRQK
OBSERVED_PROPERTY: IC50
Form field: result (number plus unit)

Request: Return reported IC50; argument: NC(=O)c1nc(F)cnc1O [T-705, 6-Fluoro-3-hydroxy-2-pyrazinecarboxamide]
Response: 38 µM

---

target: UniProtKB P03431; assay: Influenza virus RdRp replicon reporter (Luc) assay in transduced 293T cells; assay type: cell-based, Influenza A/PR/8/34 (H1N1); conditions: Methotrexate concentration 0.16 μM; read-out: T-705 50% inhibitory concentration
OBSERVED_PROPERTY: IC50
Form field: result (number plus unit)

Request: Return reported IC50; argument: NC(=O)c1nc(F)cnc1O [T-705, 6-Fluoro-3-hydroxy-2-pyrazinecarboxamide]
Response: 43 µM
